Value source: ChEMBL document CHEMBL1152040

In this section, each of the compounds is paired with its reported IC50.
target_desc: Delta-type opioid receptor (Mus musculus, UniProt P32300)
Sequence (P32300 whole entry): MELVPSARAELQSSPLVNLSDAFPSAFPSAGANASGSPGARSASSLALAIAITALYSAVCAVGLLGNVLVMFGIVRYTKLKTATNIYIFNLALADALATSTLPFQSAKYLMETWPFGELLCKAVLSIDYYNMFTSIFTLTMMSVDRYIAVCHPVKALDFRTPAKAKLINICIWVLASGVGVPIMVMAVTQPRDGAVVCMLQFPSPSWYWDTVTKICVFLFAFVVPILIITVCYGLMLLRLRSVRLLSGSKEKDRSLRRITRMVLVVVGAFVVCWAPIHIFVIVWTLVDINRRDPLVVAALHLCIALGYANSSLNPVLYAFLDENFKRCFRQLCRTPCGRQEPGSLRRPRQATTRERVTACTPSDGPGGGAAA
method_notes: The compound was evaluated for the binding affinity towards delta-opioid receptor by displacement of [3H]p-CI-DPDPE radioligand from mouse vas deferens
The reply should be a number in nM, with the unit left off.

Below: 2 compounds and their reported IC50.
compound="Cc1cc(O)cc(C)c1C(C)C(NC(=O)OC(C)(C)C)C(=O)N1Cc2ccccc2C[C@H]1C(=O)OCc1ccccc1 (stereo not given in full)" measured_quantity=IC50 unit_tag=nM recorded_result=19
compound=Cc1cc(O)cc(C)c1[C@@H](C)[C@H](N)C(=O)N1Cc2ccccc2C[C@H]1C(=O)O measured_quantity=IC50 unit_tag=nM recorded_result=9.3

With those in mind, consider the next compound.
Enquiry: Entry Cc1cc(O)cc(C)c1[C@H](C)[C@H](N)C(=O)N1Cc2ccccc2C[C@H]1C(=O)O : reported IC50 = ?
Return: 124
